Molecular target: T1, FZD10 cysteine-rich domain (CRD), MYC-tagged and GPI-anchored on CHO cells (human, UniProt Q9ULW2 30-156, GPI anchor)
T1 construct: also called FZD10 CRD; CHO-myc-FZDGPI; not shown: MYC tag and GPI anchor signal
T1 sequence: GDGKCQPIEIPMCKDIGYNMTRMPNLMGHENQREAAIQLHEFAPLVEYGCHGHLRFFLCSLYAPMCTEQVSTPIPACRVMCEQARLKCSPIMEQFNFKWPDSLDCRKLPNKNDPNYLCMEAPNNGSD
Assay: flow cytometry, CHO-CRD cells;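 also: flow cytometry of Fab binding to CHO cells overexpressing a Frizzled CRD, with binding defined as median fluorescence over twice that of CHO cells lacking any Frizzled CRD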
Entries annotated with measured median fluorescence
Reply with just the number.

Noted for Fab-2922 (Fab, V domains shown, Fab; also called Fv-2922) VH: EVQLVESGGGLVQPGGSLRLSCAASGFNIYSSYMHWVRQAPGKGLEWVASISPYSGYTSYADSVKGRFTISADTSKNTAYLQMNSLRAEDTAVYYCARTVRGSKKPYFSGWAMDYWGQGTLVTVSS VL: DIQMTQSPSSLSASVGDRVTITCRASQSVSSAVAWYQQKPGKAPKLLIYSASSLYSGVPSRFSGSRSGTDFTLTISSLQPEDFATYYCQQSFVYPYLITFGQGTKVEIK : its median fluorescence reads 2.74

Noted for Fab-2916 (Fab, V domains shown, Fab) VH: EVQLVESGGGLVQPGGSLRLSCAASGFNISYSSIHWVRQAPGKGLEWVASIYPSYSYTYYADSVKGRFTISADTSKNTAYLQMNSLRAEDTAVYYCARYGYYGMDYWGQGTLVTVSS VL: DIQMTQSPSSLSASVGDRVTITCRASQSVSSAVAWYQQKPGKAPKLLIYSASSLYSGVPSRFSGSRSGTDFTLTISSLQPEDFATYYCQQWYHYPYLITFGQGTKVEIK : its median fluorescence reads 2.94

Noted for Fab-2899 (Fab, V domains shown, Fab; also called Fv-2899) VH: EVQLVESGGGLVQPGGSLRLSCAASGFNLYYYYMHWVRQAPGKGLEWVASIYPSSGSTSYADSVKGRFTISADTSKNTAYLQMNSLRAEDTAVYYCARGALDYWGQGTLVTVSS VL: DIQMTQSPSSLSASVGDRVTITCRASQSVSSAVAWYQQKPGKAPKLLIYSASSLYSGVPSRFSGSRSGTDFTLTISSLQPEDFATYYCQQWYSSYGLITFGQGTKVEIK : its median fluorescence reads 5
